tested on: CCRF-CEM leukemia; assay: NCI tumour cell line growth inhibition, 48 h
Examples of molecules with documented TGI follow.

>  <molecule>
COC(CN(C=O)[C@@H](c1ccc(Cl)cc1)c1cc2ccccc2o1)OC

>  <target.of.assay>
CCRF-CEM leukemia

>  <units.label>
µM

>  <modifier>
=

>  <TGI>
44

$$$$
>  <molecule>
C/C(N=Nc1nc2ccccc2[nH]1)=C1/C=CC=CN1O

>  <target.of.assay>
CCRF-CEM leukemia

>  <units.label>
µM

>  <modifier>
>

>  <TGI>
100

$$$$
>  <molecule>
COc1ccc(NS(=O)c2ccccc2OC)cc1 (stereo not given)

>  <target.of.assay>
CCRF-CEM leukemia

>  <units.label>
µM

>  <modifier>
>

>  <TGI>
100

$$$$
>  <molecule>
Cc1cccc2c1O/C(=C\c1ccc([N+](=O)[O-])o1)C2=O

>  <target.of.assay>
CCRF-CEM leukemia

>  <units.label>
µM

>  <modifier>
=

>  <TGI>
1.05

$$$$
>  <molecule>
c1cc(-c2cn[nH]c2)cc(-c2cn[nH]c2)c1

>  <target.of.assay>
CCRF-CEM leukemia

>  <units.label>
µM

>  <modifier>
>

>  <TGI>
100

$$$$
>  <molecule>
COc1ccc(C(=O)COc2cccc(/C=C3\CSc4ccc(Cl)cc4C3=O)c2)cc1

>  <target.of.assay>
CCRF-CEM leukemia

>  <units.label>
µM

>  <modifier>
=

>  <TGI>
5.41

$$$$
>  <molecule>
BrC1=CC=C2NCCCCCCN=C3C=CC(Br)=CC=C3NCCCCCCN=C2C=C1

>  <target.of.assay>
CCRF-CEM leukemia

>  <units.label>
µM

>  <modifier>
>

>  <TGI>
25.5

$$$$
>  <molecule>
CSc1nc2c(c(O)c(C)c(=O)n2C2OCC(OC(C)=O)C(OC(C)=O)C2OC(C)=O)c(=O)n1C (stereo not given)

>  <target.of.assay>
CCRF-CEM leukemia

>  <units.label>
µM

>  <modifier>
>

>  <TGI>
100

$$$$
>  <molecule>
Cc1[nH]nc2c1C(=O)C=C(N(CCO)c1ccccc1)C2=O

>  <target.of.assay>
CCRF-CEM leukemia

>  <units.label>
µM

>  <modifier>
>

>  <TGI>
100

$$$$
>  <molecule>
C#C[C@]1(O)CC[C@H]2[C@@H]3CCC4=C/C(=N\OCCN(CC)CC)CC[C@]4(C)[C@H]3CC[C@@]21C

>  <target.of.assay>
CCRF-CEM leukemia

>  <units.label>
µM

>  <modifier>
=

>  <TGI>
44.9

$$$$

###

system: M14 melanoma; assay: NCI tumour cell line growth inhibition, 48 h
Examples of compounds with documented TGI follow.

>  <compound>
CN(C)CCc1ccnc2nc(-c3ccc4ccccc4c3)cn12

>  <TGI>
> 100 µM

$$$$
>  <compound>
COc1cc2cc(Oc3ccc(NC(=O)Nc4ccc(Cl)c(C(F)(F)F)c4)cc3)c(C)nc2cc1OC

>  <TGI>
5.25 µM

$$$$
>  <compound>
C/C(N=Nc1nc2ccccc2[nH]1)=C1/C=CC=CN1O

>  <TGI>
> 100 µM

$$$$
>  <compound>
CO[C@@]12C[C@H]3[C@@H]([C@@H](O)[C@@H](OC(=O)/C=C/c4ccccc4)[C@@]4(O)C(C)(C)CCC[C@]34C)[C@@H](C)C1=CC(=O)O2

>  <TGI>
> 100 µM

$$$$
>  <compound>
CCCCCCCCCCCC(O)=C1C(=O)CC(O)CC1=O (stereo not given)

>  <TGI>
> 100 µM

$$$$
